Where do the numbers come from? From PubChem BioAssay (NCI).

Test system: ACHN renal
procedure.text: NCI-60 one-dose screen, 48 h
run.parameters: 10 µM unless noted
Compounds without any hit were thinned out: in the full panel of roughly 83,000, 20% have a hit. The source made the active and inactive calls. How the source made its calls: active means growth percent below 10; inactive means the rest.
Labels: active, inactive

1) O=C(/C=C/C12c3ccccc3C(c3ccccc31)C1C(=O)NC(=O)C12)c1ccc(Cl)cc1 (configuration not stated) ... active
2) CCOC(=O)N1CCc2c(sc3c2C(=O)N[C@H](c2ccc(OC)cc2)N3)C1 ... inactive
3) CC(C)c1ccc(NC(=O)Cc2ccc(Nc3ncnc4cc(-c5cnn(CCN(C)C)c5)ccc34)cc2)cc1 ... active
4) COc1ccc(-c2cn(-c3cccc(C(=O)/C=C/c4cc(OC)c(OC)c(OC)c4)c3)c(=O)[nH]2)cc1 ... active
5) N#C/C(=C\c1ccc(Br)cc1)n1nnc2ccccc21 ... active
6) COc1cc(NC(=O)c2cccc(-c3cc(=O)c4c(O)c(OC)c(OC)cc4o3)c2)cc(OC)c1OC ... inactive
7) CCOc1cccnc1/C=N/NC(N)=S ... inactive
8) CN1CCN(C(=O)[C@@]2(C)CC[C@]3(C)CC[C@]4(C)C(=CC[C@@H]5[C@@]6(C)C/C(=C/c7ccncc7)C(=O)C(C)(C)[C@@H]6CC[C@]54C)[C@@H]3C2)CC1 ... inactive
9) NS(=O)(=O)c1cnccc1-n1ccc(=O)c(S(N)(=O)=O)c1 ... inactive
10) CC(C)n1nc(C#Cc2cccc(NC(=O)c3cccc(C(F)(F)F)c3)c2)c2c(N)ncnc21 ... active
11) O=C(NCCOCCOCCOCCNC(=O)c1cc2c(o1)C(=O)c1ccccc1C2=O)NC12CC3CC(CC(C3)C1)C2 ... active
12) O=C1CSC(c2ccccc2)N1c1ccccc1 (configuration not stated) ... inactive
13) C#C[C@]1(O)CC[C@H]2[C@@H]3CC=C4c5sc(N=C(N)N)nc5CC[C@]4(C)[C@H]3CC[C@@]21C ... active
14) CCNCCNc1cc(-c2ccc(C(=O)OC)cc2)c(C#N)c2nc3ccccc3n12 ... inactive
15) COc1ccc(C(=O)/C=C/c2cc3c(c(OC)c2)OCC(=O)N3)cc1 ... inactive
16) CC(=O)Nc1nccs1 ... inactive
17) Nc1c(-c2nc3ccc(Br)cc3c(=O)[nH]2)nnn1-c1ccccc1 ... inactive
18) CCOC(=O)c1sc(-c2ccc(OS(=O)(=O)c3ccc(C(C)(C)C)cc3)c(C=O)c2)nc1C ... inactive
19) Cc1nc(Nc2ccc(S(=O)(=O)Nc3cc(C)on3)cc2)c2ccccc2n1 ... inactive
20) CCCCn1c(=O)[nH]c(N)c(C(c2ccc(F)cc2)c2c(N)[nH]c(=O)n(CCCC)c2=O)c1=O ... inactive
21) NS(=O)(=O)c1cn(-c2ncnc3nc[nH]c23)ccc1=O ... inactive
22) O=C1NN(C(=O)c2ccc(O)cc2)C(c2ccccc2)=N/C1=C\c1cn(-c2ccccc2)nc1-c1ccccc1 ... inactive
23) Cc1nc2ccc(C(=O)NCc3cc(C(=O)O)c(C)o3)cc2nc1C ... inactive
24) CNCCNc1nc2ccccc2c2c(=O)c3cc(F)ccc3oc12 ... inactive
25) C=C(C=O)[C@@H]1CC=C(C=O)CC1 ... active
26) CCc1nc2ccccc2[nH]1 ... inactive
27) C=C1c2c(C)nn(-c3ccc(N)cc3)c2N(C)C23CC1C1(C)c4c(C)nn(-c5ccc(N)cc5)c4N(C)C(C)(CC12)C3 (configuration not stated) ... inactive
28) COc1cc(C(=O)/C=C/c2c(-c3ccc(F)cc3)nc3ncccn23)cc(OC)c1OC ... inactive
29) Clc1ccc2c(NCCCN3CCN(c4nc(N5CCOCC5)nc5ccccc45)CC3)ccnc2c1 ... active
30) COc1cc2ccccc2cc1C(=O)NC(=S)Nc1ccc(-c2nc3ccccc3[nH]2)cc1 ... inactive
31) CCCCN(Cc1ccc(C(=O)NO)cc1)C(=O)Nc1ccc(OCCCCCCCCCn2cc(CCCCC(=O)N[C@H](C(=O)N3C[C@H](O)C[C@H]3C(=O)NCc3ccc(-c4scnc4C)cc3)C(C)(C)C)nn2)cc1 ... inactive
32) C=CC(=O)N[C@@H](Cc1ccc(-c2cc(Cl)cc(Cl)c2)cc1)[C@@H](O)[C@H](O)C(=O)O ... inactive
33) COc1cc2oc(-c3cccc(C(=O)Nc4ccc(C#N)cc4)c3)cc(=O)c2c(O)c1OC ... inactive
34) Cl.[Pt].[c-]1ccccc1-c1ccccn1.c1ccc(P(c2ccccc2)C([PH+](c2ccccc2)c2ccccc2)[PH+](c2ccccc2)c2ccccc2)cc1 ... active
35) Cc1cnc(Nc2ccc(N3CCN(C)CC3)cc2)nc1Nc1ccc(Cl)c(NS(=O)(=O)C(C)(C)C)c1 ... active
36) COc1ccc(-n2sc(=O)n(Cc3ccc(COC(=O)C(C)c4ccc(CC(C)C)cc4)cc3)c2=O)cc1 (configuration not stated) ... active
37) Cn1c(NCCc2ccc(O)c(O)c2)nc2c1c(=O)n(Cc1ccc(Cl)cc1)c(=O)n2C ... inactive

###

System: OVCAR-3 ovarian
procedure.text: NCI-60 one-dose screen, 48 h
run.parameters: 10 µM unless noted
The panel holds about 83,000 compounds, 20% with a hit somewhere; the sample as a whole holds those more often. Active and inactive are the calls of the source. The calls were made as follows: active = growth percent below 10; inactive = the rest.
Possible outcomes: active, inactive

1) CSc1nc2sc3cc(Cl)ccc3n2c(=N)c1C#N ... inactive
2) Cc1cnc(Nc2ccc(OCCN3CCCC3)cc2)nc1NCc1ccco1 ... inactive
3) N#Cc1c(N)nc2c(nnn2-c2cccc(C(F)(F)F)c2)c1N ... inactive
4) Cc1nc(Nc2ccccn2)sc1C(=O)/C=C/c1ccc(Br)cc1 ... inactive
5) COC1(CC[C@@H](C)COC2OC(CO)C(O)C(O)C2O)O[C@H]2C[C@H]3[C@@H]4CC=C5C[C@@H](OC6OC(CO)C(OC7OC(C)C(O)C(O)C7O)C(O)C6OC6OC(C)C(O)C(O)C6O)CC[C@]5(C)[C@H]4CC[C@]3(C)[C@H]2[C@@H]1C (some centres undefined) ... active
6) CCOC(=O)C(=CNc1ccccc1[N+](=O)[O-])C(=O)OCC ... inactive
7) CC(C)OC(=O)NNC(=O)c1ccncc1 ... inactive
8) CCNCCNc1cc(-c2ccc(C#N)cc2)c(C#N)c2nc3ccccc3n12 ... active
9) O=[N+]([O-])c1ccccc1C(O)Cc1ccc2ccccc2n1 (centres undefined) ... inactive
10) Cn1c(NCCc2ccc(O)c(O)c2)nc2c1c(=O)n(Cc1ccc(Cl)cc1)c(=O)n2C ... inactive
11) O=C1CSC(c2ccccc2Cl)N1c1nnc(Cn2cnnc2)o1 (centres undefined) ... inactive
12) CNC(=O)c1cc(Oc2ccc3nc(Nc4cc(Cl)cc(Cl)c4)ccc3c2)ccn1 ... inactive
13) CN1C[C@@H](c2ccc(Cl)cc2)[C@]2(NC(=S)N(c3ccccc3)C2=O)[C@@]12C(=O)NC1C=CC(Br)=C[C@H]12 (some centres undefined) ... inactive
14) COc1cc(NC(=O)c2cccc(-c3cc(=O)c4c(O)c(OC)c(OC)cc4o3)c2)cc(OC)c1OC ... inactive
15) CCOc1ccc2nc(-c3cccc(OCC(=O)NC(C)C)c3)nc(Nc3ccc(-c4cn[nH]c4)cc3)c2c1 ... active
16) Cn1cc(-c2ccc3nc(-c4ccc(CC(=O)Nc5cc(C(C)(C)C)no5)cc4)cnc3c2)cn1 ... inactive
17) CN1CCN(c2ccc(Nc3ncc(Cl)c(NC[C@@H]4CCCO4)n3)cc2)CC1 ... inactive
18) CNC(=O)c1cc(Oc2ccc3nc(NC(=O)Nc4cc(C(F)(F)F)cc(C(F)(F)F)c4)sc3c2)ccn1 ... active
19) O=C(NCc1cn(Cc2cccc(Oc3ccccc3)c2)nn1)c1cccnc1NCc1ccc(Cl)cc1 ... active

###

Tested on: SNB-19 CNS
procedure.text: NCI-60 one-dose screen, 48 h (100 = growth as untreated, 0 = no growth, -100 = all killed)
run.parameters: 10 µM unless noted
Compounds without any hit were thinned out: in the full panel of roughly 83,000, 20% have a hit.
readout.kind: growth (%)

1) CC(C)c1ccc(C(=O)OC(=O)c2ccc(C(C)C)cc2)cc1 ... 107
2) CNCCNc1nc2ccccc2c2c(=O)c3cc(F)ccc3oc12 ... 57.9
3) COc1cc(/C=C/c2nc(Nc3ccc(S(=O)(=O)Nc4cc(C)on4)cc3)c3ccccc3n2)ccc1O ... 64.3
4) CC(=O)Nc1ccc(C(=O)/C=C/c2ccccc2)cc1 ... 80.5
5) CC(C)OC(=O)OCOP(=O)(OCOC(=O)OC(C)C)C1CCCN(O)C1=O (stereo not given) ... 21.5
6) CC(=O)c1sc(-c2ccccc2)cc1N ... 94.5
7) CCCCNCC(=O)Nc1ccc(C(=O)OCC)cc1 ... 103
8) O=C(NCc1cccnc1)c1cc(-c2csc3c(=O)cc(N4CCOCC4)oc23)cc2c1OCCO2 ... 47.5
9) CCN(CC)CCCC(C)NCc1ccccc1 (stereo not given) ... 101
10) Cc1cc(C(c2ccccc2)c2ccccc2)ccc1NS(=O)(=O)c1ccccc1 ... 101
11) C=CC(=O)Nc1cccc(C)c1Nc1cc(-c2cccnc2Cc2c(C)c(OC)cc(OC)c2C)ncn1 ... 23.3
12) CCC(C)NCc1ccccc1 (stereo not given) ... 102
13) CN(C)CCCCNc1ccc(NCCCCN(C)C)c2c1C(=O)c1c(O)ccc(O)c1C2=O ... 2.06
14) COc1ccc(OC)c(Nc2nc3nonc3nc2Nc2cccc(Br)c2)c1 ... 14.6
15) CCn1nc(C#Cc2c(C)ccc3c(Nc4ccc(Cl)cc4)nccc23)c2c(N)ncnc21 ... 9
16) Clc1ccc2[nH]c3c(NCCCN4CCOCC4)ncnc3c2c1 ... 92.9
17) Nc1ccn(C2OC(F)(CO)C(O)C2F)c(=O)n1 (stereo not given) ... 36.8
18) CN1C[C@@H](c2ccc(Cl)cc2)[C@]2(NC(=S)N(c3ccccc3)C2=O)[C@@]12C(=O)NC1C=CC(Br)=C[C@H]12 (stereo not given in full) ... 86.2
19) c1ccc(-c2oc3ccccc3c2-c2ccccc2)cc1 ... 99.3
20) COc1cc(-c2cccc([N+](=O)[O-])c2)c(-c2nc(-c3ccccc3)c(-c3ccccc3)n2C2CC2)cc1OC ... 80.4
21) C[C@@H]1C(=O)N(C[C@@H](Cc2ccccc2)NC(=O)OCc2ccccc2)[C@]1(Cc1ccccc1)C(=O)OCc1ccccc1 ... 44.3
22) CN1CCN(CCCOc2ccc3nc(Nc4cc(Cl)cc(Cl)c4)ccc3c2)CC1 ... -76.2
23) CCNCCNc1cc(-c2ccc(C(F)(F)F)cc2)c(C#N)c2nc3cc(Cl)c(Cl)cc3n12 ... -62.7
24) N#Cc1c(NC(=O)c2ccc(Br)cc2)sc2c1CCCC2 ... 38.5
25) O=C(NCCOCCOCCOCCNC(=O)c1cc2c(o1)C(=O)c1ccccc1C2=O)NC12CC3CC(CC(C3)C1)C2 ... -2.04
26) COc1ccc(C2CC(c3cnccn3)=NN2)cc1OC (stereo not given) ... 103
27) Fc1ccc(Nc2nc(Nc3ccc(-c4nc5ccccc5[nH]4)cc3)c3cn[nH]c3n2)cc1 ... 87.6
28) COc1cc2cc(Oc3ccc(NC(=O)Nc4cc(C(F)(F)F)cc(C(F)(F)F)c4)cc3)c(C)nc2cc1OCCN1CCCCC1 ... -92.2
29) CCn1c(Sc2nnc(NC(=O)CSC(=S)N3CCCCC3)s2)nc2c1c(=O)n(C)c(=O)n2C ... 87.5
30) O=[N+]([O-])c1ccc(-c2cc3c(Nc4ccc(Sc5nc6ccccc6s5)c(Cl)c4)ncnc3s2)cc1 ... 23.7
31) Cl.Fc1c[c-]c(-c2ccccn2)c(F)c1.[Pt].c1ccc([PH+](C[PH+](c2ccccc2)c2ccccc2)c2ccccc2)cc1 ... -88.9
32) CCOC(=O)c1nnn(-c2ccccc2)c1C1=CN(C)CCC1 ... 108
33) Cc1cn(C2CCCCC2)c(=O)[nH]c1=O ... 114
34) CCOc1ccc(S(=O)(=O)c2ccc(C)cc2)c2c1no[n+]2[O-] ... 87.9
35) CN(C)c1ccc(-c2cc(-c3ccc(Nc4nc(Nc5ccccc5)nc(Nc5ccc(Cl)cc5)n4)cc3)nc(N)n2)cc1 ... 66.8
36) CCNCCNc1cc(-c2ccc(F)cc2)c(C#N)c2nc3ccccc3n12 ... 79.3
37) Cc1nc(Nc2ccc(N)cc2)c2ccccc2n1 ... 97.7
38) C/C(=N\NC(=O)Cn1c(-c2ccc(S(C)(=O)=O)cc2)nc2cc(Cl)ccc21)c1ccc(Cl)cc1 ... 84.3
39) CCNCCNc1cc(-c2ccc(C#N)cc2)c(C#N)c2nc3ccccc3n12 ... 51
40) Cc1nn(-c2ccccc2)c2c1C(c1ccc([N+](=O)[O-])cc1)C(C#N)=C(N)O2 (stereo not given) ... 102
